Biological target: MAO-A (Homo sapiens, UniProt P21397)
Construct: made in house; host or cells: yeast
Sequence (P21397 whole entry): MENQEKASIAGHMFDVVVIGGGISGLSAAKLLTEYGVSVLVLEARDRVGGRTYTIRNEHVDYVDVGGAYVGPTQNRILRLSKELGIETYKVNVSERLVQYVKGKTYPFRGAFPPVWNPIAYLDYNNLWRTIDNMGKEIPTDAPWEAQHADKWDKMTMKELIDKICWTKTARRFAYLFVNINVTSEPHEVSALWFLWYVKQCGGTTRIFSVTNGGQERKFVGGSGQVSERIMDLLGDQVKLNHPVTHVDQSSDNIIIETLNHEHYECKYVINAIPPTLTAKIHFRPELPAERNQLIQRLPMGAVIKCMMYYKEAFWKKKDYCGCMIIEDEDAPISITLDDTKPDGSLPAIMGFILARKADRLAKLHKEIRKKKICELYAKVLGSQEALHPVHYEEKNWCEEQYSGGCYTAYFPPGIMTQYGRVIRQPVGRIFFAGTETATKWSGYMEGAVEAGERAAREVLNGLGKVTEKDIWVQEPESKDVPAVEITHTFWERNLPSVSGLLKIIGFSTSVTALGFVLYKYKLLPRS
Test: MAO-A in-vitro assay, human liver enzyme expressed in yeast
Type: biochemical
Conditions: read-out: MAO-A Ki
Measured Ki values are reported for all entries that follow.

{"columns": ["compound", "target_under_test", "unit_annotation", "Ki"],
 "data": [
  ["O=C1O[C@@H](Cn2ccnn2)CN1c1ccc(-c2ccc(C3=NO[C@@H](CO)C3)nc2)c(F)c1 [Example 2]", "MAO-A (Homo sapiens, UniProt P21397)", "µM", 0.7],
  ["CC(=O)NC[C@H]1CN(c2ccc(-c3ccc(C4=NO[C@@H](CO)C4)nc3)c(F)c2)C(=O)O1 [Example 4]", "MAO-A (Homo sapiens, UniProt P21397)", "µM", 3],
  ["CC(=O)NC[C@H]1CN(c2ccc(-c3ccc(C4=NO[C@H](CO)C4)nc3)c(F)c2)C(=O)O1 [Example 3]", "MAO-A (Homo sapiens, UniProt P21397)", "µM", 9]
]}

###

Counter-ions that a name gives are not always drawn.

{"columns": ["molecule", "melting point / °C"],
 "data": [
  ["CCN(CC)CCC(=O)OC[C@@H]1CC(c2ccc(-c3ccc(N4C[C@H](Cn5ccnn5)OC4=O)cc3F)cn2)=NO1", 167],
  ["CCOC(=O)CCCCC(=O)OC[C@@H]1CC(c2ccc(-c3ccc(N4C[C@H](Cn5ccnn5)OC4=O)cc3F)cn2)=NO1", 88],
  ["COC(=O)N(C)CCCC(=O)OC[C@@H]1CC(c2ccc(-c3ccc(N4C[C@H](Cn5ccnn5)OC4=O)cc3F)cn2)=NO1", 135],
  ["CN(C)CC(=O)N(C)CCCCC(=O)OC[C@@H]1CC(c2ccc(-c3ccc(N4C[C@H](Cn5ccnn5)OC4=O)cc3F)cn2)=NO1 (as salt: hydrochloride)", 133]
]}

###

Structures can show the parent of a compound that is named as a salt.
Measured melting point values are reported for all entries that follow.

{"columns": ["compound", "unit_annotation", "melting point"],
 "data": [
  ["CCOC(=O)NCCCCC(=O)OCC1CC(c2ccc(-c3ccc(N4C[C@H](Cn5ccnn5)OC4=O)cc3F)cn2)=NO1 (some centres unmarked)", "°C", 183],
  ["COCC(=O)OC[C@@H]1CC(c2ccc(-c3ccc(N4C[C@H](Cn5ccnn5)OC4=O)cc3F)cn2)=NO1", "°C", 170],
  ["CN(CCCCC(=O)OC[C@@H]1CC(c2ccc(-c3ccc(N4C[C@H](Cn5ccnn5)OC4=O)cc3F)cn2)=NO1)C(=O)OC(C)(C)C", "°C", 121],
  ["CNCCCCC(=O)OC[C@@H]1CC(c2ccc(-c3ccc(N4C[C@H](Cn5ccnn5)OC4=O)cc3F)cn2)=NO1 (as salt: hydrochloride)", "°C", 184],
  ["O=C(OC[C@@H]1CC(c2ccc(-c3ccc(N4C[C@H](Cn5ccnn5)OC4=O)cc3F)cn2)=NO1)c1ccc[n+]([O-])c1", "°C", 255],
  ["COC(=O)N(C)CCCCC(=O)OC[C@@H]1CC(c2ccc(-c3ccc(N4C[C@H](Cn5ccnn5)OC4=O)cc3F)cn2)=NO1", "°C", 82],
  ["COCCCC(=O)OC[C@@H]1CC(c2ccc(-c3ccc(N4C[C@H](Cn5ccnn5)OC4=O)cc3F)cn2)=NO1", "°C", 154],
  ["COCCOC(=O)OC[C@@H]1CC(c2ccc(-c3ccc(N4C[C@H](Cn5ccnn5)OC4=O)cc3F)cn2)=NO1", "°C", 112],
  ["COC(=O)N(C)CCCCCC(=O)OC[C@@H]1CC(c2ccc(-c3ccc(N4C[C@H](Cn5ccnn5)OC4=O)cc3F)cn2)=NO1", "°C", 103],
  ["COCCCOC(=O)OC[C@@H]1CC(c2ccc(-c3ccc(N4C[C@H](Cn5ccnn5)OC4=O)cc3F)cn2)=NO1", "°C", 142],
  ["COC(=O)NCCCCC(=O)OC[C@@H]1CC(c2ccc(-c3ccc(N4C[C@H](Cn5ccnn5)OC4=O)cc3F)cn2)=NO1", "°C", 90],
  ["COCCC(=O)OC[C@@H]1CC(c2ccc(-c3ccc(N4C[C@H](Cn5ccnn5)OC4=O)cc3F)cn2)=NO1", "°C", 149],
  ["CN(C)CCCC(=O)OC[C@@H]1CC(c2ccc(-c3ccc(N4C[C@H](Cn5ccnn5)OC4=O)cc3F)cn2)=NO1", "°C", 148],
  ["COC(=O)OC[C@@H]1CC(c2ccc(-c3ccc(N4C[C@H](Cn5ccnn5)OC4=O)cc3F)cn2)=NO1", "°C", 205]
]}
